Measured values drawn from patent US11524966B1 for this set.

TARGET_OR_SYSTEM: USP28 (His-tagged USP28-FL-mammalian) (Homo sapiens, UniProt Q96RU2)
Construct: Expression of USP28 (1-1077)-TEV-6*His (pTT5 vector); made in house; host or cells: Expi293f cells (pTT5 vector)
ASSAY_SUMMARY: Ubiquitin-Rhodamine 110 Assay for USP28 Activity, Example A-1(a)
Type: biochemical
EXPERIMENTAL_SETUP: Ubiquitin-Rhodamine 110 assay, Example A-1(a); read-out: USP28 A-1(a) IC50 range
READOUT_TYPE: IC50

The reported value for CO[C@H]1CN(c2ccc3c(c2)OC[C@H](NC(=O)c2sc4nc(C)ccc4c2N)C3)C[C@@H]1NC(C)=O in terms of IC50 is 50 to 200 nM

Quick note, IC50 for CCOC[C@H]1CN(c2ccc3c(c2)OC[C@H](NC(=O)c2sc4nc(C)ccc4c2N)C3)C[C@H]1N landed at 1 to 50 nM

Item: Cc1nc2sc(C(=O)N[C@@H]3COc4cc(N5CC6CCC(C5)N6)c(F)cc4C3)c(N)c2s1 | IC50: 1 to 50 nM

Entry under test: CO[C@H]1CN(c2cc3c(cc2C#N)C[C@@H](NC(=O)c2sc4nc(C)ccc4c2N)CO3)C[C@@H]1N . Its IC50 was 1 to 50 nM

---

TARGET_OR_SYSTEM: USP28 (His-tagged USP28-FL-mammalian) (Homo sapiens, UniProt Q96RU2)
Construct: Expression of USP28 (1-1077)-TEV-6*His (pTT5 vector); made in house; host or cells: Expi293f cells (pTT5 vector)
Sequence (Q96RU2 1-1077): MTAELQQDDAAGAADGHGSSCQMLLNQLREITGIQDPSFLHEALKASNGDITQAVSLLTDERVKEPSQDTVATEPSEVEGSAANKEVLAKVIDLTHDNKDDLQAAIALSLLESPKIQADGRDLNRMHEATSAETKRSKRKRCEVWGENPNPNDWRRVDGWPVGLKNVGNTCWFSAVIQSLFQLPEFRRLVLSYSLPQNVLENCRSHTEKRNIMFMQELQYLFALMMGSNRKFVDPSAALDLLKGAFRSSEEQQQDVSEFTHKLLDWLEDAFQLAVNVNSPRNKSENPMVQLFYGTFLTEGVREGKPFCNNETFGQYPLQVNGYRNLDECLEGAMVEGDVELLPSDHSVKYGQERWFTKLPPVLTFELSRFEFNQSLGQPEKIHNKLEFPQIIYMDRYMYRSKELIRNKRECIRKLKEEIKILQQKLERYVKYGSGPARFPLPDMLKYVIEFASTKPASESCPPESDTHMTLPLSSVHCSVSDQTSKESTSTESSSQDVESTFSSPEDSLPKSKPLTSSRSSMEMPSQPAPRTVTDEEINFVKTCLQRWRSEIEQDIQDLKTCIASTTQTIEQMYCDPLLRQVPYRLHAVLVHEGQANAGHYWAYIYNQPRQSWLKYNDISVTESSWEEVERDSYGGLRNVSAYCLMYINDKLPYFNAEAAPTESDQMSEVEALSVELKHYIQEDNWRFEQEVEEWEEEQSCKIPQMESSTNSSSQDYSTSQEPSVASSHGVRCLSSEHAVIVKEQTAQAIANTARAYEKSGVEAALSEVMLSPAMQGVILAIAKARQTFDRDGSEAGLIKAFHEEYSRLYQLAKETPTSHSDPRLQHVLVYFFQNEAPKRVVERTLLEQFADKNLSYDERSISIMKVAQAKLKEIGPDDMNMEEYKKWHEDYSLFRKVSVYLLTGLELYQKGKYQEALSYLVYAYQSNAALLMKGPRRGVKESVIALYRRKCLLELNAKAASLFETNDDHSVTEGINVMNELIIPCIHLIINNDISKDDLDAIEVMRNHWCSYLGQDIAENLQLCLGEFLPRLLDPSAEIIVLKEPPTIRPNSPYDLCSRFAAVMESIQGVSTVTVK
ASSAY_SUMMARY: Ubiquitin-Rhodamine 110 Assay for USP28 Activity, Example A-1(a)
Type: biochemical
EXPERIMENTAL_SETUP: Ubiquitin-Rhodamine 110 assay, Example A-1(a); read-out: USP28 A-1(a) IC50 range
Entries and their measured IC50 follow.

Use these answered entries as a reference point.
- COMPOUND_STRING: "Cc1ccc2c(N)c(C(=O)N[C@H]3CCc4nc(N5C[C@@H](N)[C@@]6(CCCO6)C5)ccc4C3)sc2n1"
  TARGET_OR_SYSTEM: "USP28 (His-tagged USP28-FL-mammalian) (Homo sapiens, UniProt Q96RU2)"
  IC50: "200 to 2000 nM"
- COMPOUND_STRING: "Cc1ccc2c(N)c(C(=O)N[C@H]3CCc4nc(N5C[C@@H](N)[C@@]6(CCOC6)C5)ccc4C3)sc2n1"
  TARGET_OR_SYSTEM: "USP28 (His-tagged USP28-FL-mammalian) (Homo sapiens, UniProt Q96RU2)"
  IC50: "50 to 200 nM"
- COMPOUND_STRING: "Cc1cccc2c(C(=O)N[C@H]3COc4cc(N5CCNCC5)ccc4C3)cnn12"
  TARGET_OR_SYSTEM: "USP28 (His-tagged USP28-FL-mammalian) (Homo sapiens, UniProt Q96RU2)"
  IC50: "1 to 50 nM"

Turning now to a further compound:
// recorded IC50 for Cc1ccc2c(N)c(C(=O)N[C@H]3COc4cc([C@@H]5CCNC[C@@H]5O)ccc4C3)sc2n1 : 1 to 50 nM

---

TARGET_OR_SYSTEM: USP28 (His-tagged USP28-FL-mammalian) (Homo sapiens, UniProt Q96RU2)
Construct: Expression of USP28 (1-1077)-TEV-6*His (pTT5 vector); made in house; host or cells: Expi293f cells (pTT5 vector)
ASSAY_SUMMARY: Ubiquitin-Rhodamine 110 Assay for USP28 Activity, Example A-1(a)
Assay type: biochemical
EXPERIMENTAL_SETUP: Ub-Rh110 assay, Example A-1(a); read-out: USP28 A-1(a) IC50 range
Source text: Example A-1(a): Biochemical Assay: Ubiquitin-Rhodamine 110 Assay for USP28 Activity […] For assay formats Example A-1(a), A-1(b), and A-2, data were reported as percent inhibition compared with control wells based on the following equation: % inh=1−((FLU−AveLow)/(AveHigh−AveLow)) where FLU=measured Fluorescence, AveLow=average Fluorescence of no enzyme control (n=16), and AveHigh=average Fluorescence of DMSO control (n=16). […]
pIC50: −log10 of the molar value.
pIC50 values, listed per item

Recorded results for 3 compounds are shown here.
- COMPOUND: "Cc1ccc2c(N)c(C(=O)N[C@@H]3COc4cc(N5CCN[C@H](C)[C@@H]5C)ccc4C3)sc2n1 (single isomer, unassigned)"
  TARGET_OR_SYSTEM: "USP28 (His-tagged USP28-FL-mammalian) (Homo sapiens, UniProt Q96RU2)"
  pIC50: "7.30 to 9.00"
- COMPOUND: "Cc1cnc2c(N)c(C(=O)N[C@@H]3CCc4cc(N5CCNCC5)c(C)cc4C3)sc2n1 (single isomer, unassigned)"
  TARGET_OR_SYSTEM: "USP28 (His-tagged USP28-FL-mammalian) (Homo sapiens, UniProt Q96RU2)"
  pIC50: "< 5.70"
- COMPOUND: "Cc1cc(C(F)(F)F)c2c(N)c(C(=O)N[C@H]3COc4cc(N5CC6CNCC(C5)O6)ccc4C3)sc2n1"
  TARGET_OR_SYSTEM: "USP28 (His-tagged USP28-FL-mammalian) (Homo sapiens, UniProt Q96RU2)"
  pIC50: "7.30 to 9.00"

pIC50 in this record for Cc1ccc2c(N)c(C(=O)N[C@@H]3COc4c(ccc(N5CCNCC5)c4F)C3)sc2n1 : 5.70 to 6.70

---

TARGET_OR_SYSTEM: USP25 (USP25-His6, Boston Biochem E-546) (Homo sapiens)
Construct: His6; purchased Boston Biochem E-546
Sequence (Q9UHP3 whole entry): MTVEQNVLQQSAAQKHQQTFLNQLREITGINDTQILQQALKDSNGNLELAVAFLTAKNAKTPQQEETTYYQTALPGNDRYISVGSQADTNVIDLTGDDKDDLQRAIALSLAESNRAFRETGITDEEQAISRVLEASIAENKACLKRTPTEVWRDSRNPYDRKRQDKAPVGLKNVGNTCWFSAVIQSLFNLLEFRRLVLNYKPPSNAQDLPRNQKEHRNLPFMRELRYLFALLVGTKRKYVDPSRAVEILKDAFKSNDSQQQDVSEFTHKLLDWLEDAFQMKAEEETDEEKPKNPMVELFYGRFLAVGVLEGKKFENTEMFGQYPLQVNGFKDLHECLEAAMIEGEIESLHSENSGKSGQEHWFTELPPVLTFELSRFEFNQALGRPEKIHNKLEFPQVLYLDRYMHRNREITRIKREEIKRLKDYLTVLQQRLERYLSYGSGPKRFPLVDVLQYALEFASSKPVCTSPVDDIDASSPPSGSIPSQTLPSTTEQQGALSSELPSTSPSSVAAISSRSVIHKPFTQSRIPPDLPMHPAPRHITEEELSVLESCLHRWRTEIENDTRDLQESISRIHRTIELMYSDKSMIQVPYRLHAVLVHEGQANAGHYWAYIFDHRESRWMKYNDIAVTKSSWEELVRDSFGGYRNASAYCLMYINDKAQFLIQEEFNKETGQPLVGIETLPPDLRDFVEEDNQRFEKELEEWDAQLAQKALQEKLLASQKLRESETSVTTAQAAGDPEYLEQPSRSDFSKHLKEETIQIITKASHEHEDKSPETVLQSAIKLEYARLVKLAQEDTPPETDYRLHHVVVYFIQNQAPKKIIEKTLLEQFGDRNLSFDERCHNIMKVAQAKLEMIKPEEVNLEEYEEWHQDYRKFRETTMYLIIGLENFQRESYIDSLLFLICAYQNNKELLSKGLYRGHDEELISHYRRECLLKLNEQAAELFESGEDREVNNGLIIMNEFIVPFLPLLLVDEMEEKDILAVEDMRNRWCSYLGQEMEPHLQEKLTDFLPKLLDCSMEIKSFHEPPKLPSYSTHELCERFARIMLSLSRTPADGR
ASSAY_SUMMARY: Ubiquitin-Rhodamine 110 Assay for USP25 Activity, Example A-2
Type: biochemical
EXPERIMENTAL_SETUP: Ubiquitin-Rhodamine 110 assay, Example A-2; read-out: USP25 A-2 IC50 range
pIC50: −log10 of the molar value.
READOUT_TYPE: pIC50

Worked cases, answers included:
- MOLECULE: "COC[C@H]1C[C@@H](N)CN1c1ccc2c(c1)OC[C@H](NC(=O)c1sc3nc(C)ccc3c1N)C2"
  READOUT_TYPE: "pIC50"
  READING: "5.70 to 6.70"
- MOLECULE: "Cc1ccc2c(N)c(C(=O)N[C@H]3COc4cc(N5C[C@H](OC6CCC6)[C@@H](N)C5)ccc4C3)sc2n1"
  READOUT_TYPE: "pIC50"
  READING: "6.70 to 7.30"
- MOLECULE: "Cc1ccc2c(N)c(C(=O)N[C@H]3COc4cc(N5CC[C@H]6CC[C@H](N)C[C@H]65)ccc4C3)sc2n1"
  READOUT_TYPE: "pIC50"
  READING: "6.70 to 7.30"

# pIC50 of Cc1ccc2c(N)c(C(=O)N[C@H]3CCc4nc(N5C[C@@H](N)[C@@H](OC(C)C)C5)ccc4C3)sc2n1 = < 5.70

The molecule listed as O=C(N[C@H]1CCc2c(c(F)cc(N3CC4CCC(C3)N4)c2C(F)F)C1)c1cnc2c(c1)[C@H]1C[C@H]1CN2 (single isomer, unassigned) has a reported pIC50 of 5.70 to 6.70

The recorded pIC50 for entry CCOC1CN(c2ccc3c(c2)OC[C@H](NC(=O)c2sc4nc(C)cc(C)c4c2N)C3)C[C@@H]1N (stereo in doubt) equals 6.70 to 7.30
